assay: Study 1: single-dose plasma pharmacokinetics of alisertib, M1 and M2 with and without esomeprazole or rifampin; conditions: human, plasma, oral, 50 mg, Tmax, Study 1 rifampin arm; single 50 mg alisertib ECT, absence of rifampin; median (minimum, maximum)
readoutLabel: Tmax (h)

smiles: COc1cc(Nc2ncc3c(n2)-c2ccc(Cl)cc2C(c2c(F)cccc2OC)=NC3)ccc1C(=O)O
units: h
obsValue: 4

---

assay: Study 1: single-dose plasma pharmacokinetics of alisertib, M1 and M2 with and without esomeprazole or rifampin; conditions: human, plasma, oral, 50 mg, Cmax, Study 1 rifampin arm; single 50 mg alisertib ECT, absence of rifampin; geometric mean (%CV)
readoutLabel: Cmax

smiles: COc1cc(Nc2ncc3c(n2)-c2ccc(Cl)cc2C(c2c(F)cccc2OC)=NC3)ccc1C(=O)O
obsValue: 1450 nM

---

test: Study 1: single-dose plasma pharmacokinetics of alisertib, M1 and M2 with and without esomeprazole or rifampin; conditions: human, plasma, oral, 50 mg, t1/2, Study 1 rifampin arm; single 50 mg alisertib ECT, absence of rifampin; arithmetic mean (SD)

smiles: COc1cc(Nc2ncc3c(n2)-c2ccc(Cl)cc2C(c2c(F)cccc2OC)=NC3)ccc1C(=O)O
half-life: ~960 min

---

assay: Study 2: single-dose plasma pharmacokinetics of alisertib, M1 and M2 with and without itraconazole; conditions: human, plasma, oral, 30 mg

smiles: COc1cc(Nc2ncc3c(n2)-c2ccc(Cl)cc2C(c2c(F)cccc2OC)=NC3)ccc1C(=O)O
Cmax [nM]: 986

---

assay: Study 1: single-dose plasma pharmacokinetics of alisertib, M1 and M2 with and without esomeprazole or rifampin; settings: human, plasma, oral, 50 mg, Tmax, Study 1 esomeprazole arm; single 50 mg alisertib ECT, absence of esomeprazole; median (minimum, maximum)

compound: COc1cc(Nc2ncc3c(n2)-c2ccc(Cl)cc2C(c2c(F)cccc2OC)=NC3)ccc1C(=O)O [Alisertib]
Tmax: 4 h

---

assay: Study 1: single-dose plasma pharmacokinetics of alisertib, M1 and M2 with and without esomeprazole or rifampin; details: human, plasma, oral, 50 mg, t1/2, Study 1 esomeprazole arm; single 50 mg alisertib ECT, absence of esomeprazole; arithmetic mean (SD)
readoutLabel: half-life

smiles: COc1cc(Nc2ncc3c(n2)-c2ccc(Cl)cc2C(c2c(F)cccc2OC)=NC3)ccc1C(=O)O
obsValue: ~16 h

---

assay: Study 1: single-dose plasma pharmacokinetics of alisertib, M1 and M2 with and without esomeprazole or rifampin; details: human, plasma, oral, t1/2, Study 1 rifampin arm; single 50 mg alisertib ECT, presence of rifampin 600 mg QD; arithmetic mean (SD)

smiles: COc1cc(Nc2ncc3c(n2)-c2ccc(Cl)cc2C(c2c(F)cccc2OC)=NC3)ccc1C(=O)O
half-life: ~8 h

---

experiment: Study 2: single-dose plasma pharmacokinetics of alisertib, M1 and M2 with and without itraconazole; settings: human, plasma, oral, 30 mg, t1/2, Study 2; single 30 mg alisertib ECT, absence of itraconazole; arithmetic mean (SD)

smiles: COc1cc(Nc2ncc3c(n2)-c2ccc(Cl)cc2C(c2c(F)cccc2OC)=NC3)ccc1C(=O)O
half-life: ~23 h

---

test: Study 2: single-dose plasma pharmacokinetics of alisertib, M1 and M2 with and without itraconazole; conditions: human, plasma, oral, 30 mg

smiles: COc1cc(Nc2ncc3c(n2)-c2ccc(Cl)cc2C(c2c(F)cccc2OC)=NC3)ccc1C(=O)O
AUC(0-t) (µM·h): 13.5

---

experiment: Study 1: single-dose plasma pharmacokinetics of alisertib, M1 and M2 with and without esomeprazole or rifampin; settings: human, plasma, oral, AUC0-last, Study 1 esomeprazole arm; single 50 mg alisertib ECT, presence of esomeprazole 40 mg QD; geometric mean (%CV)

molecule: COc1cc(Nc2ncc3c(n2)-c2ccc(Cl)cc2C(c2c(F)cccc2OC)=NC3)ccc1C(=O)O [Alisertib]
units: µM·h
AUC(0-t): 24.5

---

experiment: Study 2: single-dose plasma pharmacokinetics of alisertib, M1 and M2 with and without itraconazole; conditions: human, plasma, oral, Tmax, Study 2; single 30 mg alisertib ECT, presence of itraconazole 200 mg QD; median (minimum, maximum)

smiles: COc1cc(Nc2ncc3c(n2)-c2ccc(Cl)cc2C(c2c(F)cccc2OC)=NC3)ccc1C(=O)O
Tmax, h: 2.9

---

assay: Study 1: single-dose plasma pharmacokinetics of alisertib, M1 and M2 with and without esomeprazole or rifampin; details: human, plasma, oral, 50 mg, AUC0-inf, Study 1 rifampin arm; single 50 mg alisertib ECT, absence of rifampin; geometric mean (%CV)

smiles: COc1cc(Nc2ncc3c(n2)-c2ccc(Cl)cc2C(c2c(F)cccc2OC)=NC3)ccc1C(=O)O
AUC(0-inf) (µM·h): 16.2

---

test: Study 2: single-dose plasma pharmacokinetics of alisertib, M1 and M2 with and without itraconazole; conditions: human, plasma, oral, 30 mg
readoutLabel: AUC(0-inf) (µM·h)

smiles: COc1cc(Nc2ncc3c(n2)-c2ccc(Cl)cc2C(c2c(F)cccc2OC)=NC3)ccc1C(=O)O
readoutLabel: AUC(0-inf)
obsValue: 14.8

---

experiment: Study 2: single-dose plasma pharmacokinetics of alisertib, M1 and M2 with and without itraconazole; settings: human, plasma, oral, 30 mg, Tmax, Study 2; single 30 mg alisertib ECT, absence of itraconazole; median (minimum, maximum)
readoutLabel: Tmax

smiles: COc1cc(Nc2ncc3c(n2)-c2ccc(Cl)cc2C(c2c(F)cccc2OC)=NC3)ccc1C(=O)O
obsValue: ~3 h

---

experiment: Study 1: single-dose plasma pharmacokinetics of alisertib, M1 and M2 with and without esomeprazole or rifampin; settings: human, plasma, oral, t1/2, Study 1 esomeprazole arm; single 50 mg alisertib ECT, presence of esomeprazole 40 mg QD; arithmetic mean (SD)

smiles: COc1cc(Nc2ncc3c(n2)-c2ccc(Cl)cc2C(c2c(F)cccc2OC)=NC3)ccc1C(=O)O
half-life: ~16 h

---

experiment: Study 1: single-dose plasma pharmacokinetics of alisertib, M1 and M2 with and without esomeprazole or rifampin; details: human, plasma, oral, 50 mg, Cmax, Study 1 esomeprazole arm; single 50 mg alisertib ECT, absence of esomeprazole; geometric mean (%CV)
readoutLabel: Cmax (nM)

smiles: COc1cc(Nc2ncc3c(n2)-c2ccc(Cl)cc2C(c2c(F)cccc2OC)=NC3)ccc1C(=O)O
obsValue: 1500

---

assay: Study 2: single-dose plasma pharmacokinetics of alisertib, M1 and M2 with and without itraconazole; conditions: human, plasma, oral, t1/2, Study 2; single 30 mg alisertib ECT, presence of itraconazole 200 mg QD; arithmetic mean (SD)

smiles: COc1cc(Nc2ncc3c(n2)-c2ccc(Cl)cc2C(c2c(F)cccc2OC)=NC3)ccc1C(=O)O
half-life: ~25 h
